// data source = patent US20170165339A1

- targetOrSystem: HLA-A*02 (human)
- testSummary: UV peptide-exchange ELISA, yield grade
peptide exchange yield by entry:

Recorded results for 4 binders are shown here.
SLPNGKPVSV [SLPNGKPVSV (SEQ ID NO: 28)]	50 to 75%
FLLPFSTVYL [FLLPFSTVYL (SEQ ID NO: 35)]	50 to 75%
FMADDIFSV [FMADDIFSV (SEQ ID NO: 243)]	50 to 75%
ILAKDLFEI [ILAKDLFEI (SEQ ID NO: 14)]	≥ 75%

Moving on to another binder below.
Prompt: Look up peptide exchange yield: ALNIATHVL [ALNIATHVL (SEQ ID NO: 49)]
Completion: 50 to 75%
